biological target: WT KRAS (Homo sapiens); test: KRAS WT Probe Displacement Assay (TR-FRET, GDP-loaded); type: binding; conditions: KRAS WT, read-out: KRAS^WT Probe Displacement Assay IC50
Sequence (P01116 1-188 isoform P01116-2): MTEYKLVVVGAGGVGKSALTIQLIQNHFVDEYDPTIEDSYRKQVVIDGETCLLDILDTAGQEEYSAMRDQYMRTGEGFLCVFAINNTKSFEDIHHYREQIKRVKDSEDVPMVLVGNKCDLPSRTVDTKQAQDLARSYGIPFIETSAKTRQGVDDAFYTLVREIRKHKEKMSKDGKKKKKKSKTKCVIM
IC50 values, listed per item
Observation type: IC50

1. Cc1cc(N)cc(-c2nc3c4c(nc(OCC5(CN6CCCC(C(F)(F)F)C6)CC5)nc4c2F)N2C[C@H]4CC[C@H](N4)[C@H]2CCO3)c1C(F)(F)F (some centres unmarked) | 3 to 1000 nM
2. CCN1CC(F)CC(C)(COc2nc3c4c(nc(-c5cc(N)cc(C)c5C(F)(F)F)c(F)c4n2)OCC[C@@H]2[C@@H]4CC[C@H](CN32)N4)C1 (some centres unmarked) | 3 to 1000 nM
3. Cc1cc(N)cc(-c2nc3c4c(nc(OCC5(C6CCCN6C)CC5)nc4c2F)N2C[C@H]4CC[C@H](N4)[C@H]2CCO3)c1C(F)(F)F (mixture of isomers) [Example 63] | 3 to 1000 nM
4. Cc1cc(N)cc(-c2nc3c4c(nc(OCC5(CN6CC7CC7C6)CC5(F)F)nc4c2F)N2C[C@H]4CC[C@H](N4)[C@H]2CCO3)c1C(F)(F)F (single isomer, unassigned) [Example 29] | 0.3 to 3 nM
5. COC1CN(CC2(COc3nc4c5c(nc(-c6cc(N)cc(C)c6C(F)(F)F)c(F)c5n3)OCC[C@@H]3[C@@H]5CC[C@H](CN43)N5)CC2)C1 | 3 to 1000 nM
